# experimentNotes: APR_HepG2_CellCycleArrest_24hr: Apredica 24-hour HepG2 Assay for Cell Cycle Arrest (AID 2282905);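 also: cell cycle arrest scored as ratio of 2N to 4N nuclear DNA content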
# experimentalSetup: imaging, actives raise or lower the signal
# Protocol: APR_HepG2_24hr is a cell-based, multiplexed-readout assay that uses HepG2, a human liver cell line, with measurements taken at 24 hours after chemical dosing in a 384-well plate.APR_HepG2_CellCycleArrest_24hr is one of 10 assay component(s) measured or calculated from the APR_HepG2_24hr assay. […] This assay endpoint, APR_HepG2_CellCycleArrest_24hr, was analyzed with bidirectional fitting relative to DMSO as the negative control and baseline of activity. […]
Activity calls are given as the source filed them. The calls were made as follows: active = hit-call score of the fitted dose curve at least 0.9, where 1 is the maximum; inactive = score below 0.9.
Hello, when you answer, please use one of the following outcomes: Y (active), N (inactive)

Identify the outcome logged in this assay for the compound shown: CC(Cl)(Cl)C(=O)O
N

Identify the outcome logged in this assay for the compound shown: CCCCN(CCCC)SN(C)C(=O)Oc1cccc2c1OC(C)(C)C2
Y

Identify the outcome logged in this assay for the compound shown: O=P1(N(CCCl)CCCl)NCCCO1 (stereo not given)
N

Identify the outcome logged in this assay for the compound shown: O=C(O)C(Cl)Cl
N

Identify the outcome logged in this assay for the compound shown: Nc1cc2c3c(c1)C(c1ccccc1)=N[C@@H](NC(=O)c1cccnc1)C(=O)N3CC2
N

Identify the outcome logged in this assay for the compound shown: c1ccc2c(c1)Nc1ccccc1S2
Y

Identify the outcome logged in this assay for the compound shown: ClC1=C(Cl)C2(Cl)C3C(Cl)C(Cl)CC3C1(Cl)C2(Cl)Cl (stereo not given)
Y

Identify the outcome logged in this assay for the compound shown: ClC(Cl)c1ccccc1
N

Identify the outcome logged in this assay for the compound shown: Nc1ccc(Cl)cc1
N

Identify the outcome logged in this assay for the compound shown: CSC(C)(C)C=NO
N

Identify the outcome logged in this assay for the compound shown: CCCCN(CCCC)N=O
N

Identify the outcome logged in this assay for the compound shown: OCC1CO1 (stereo not given)
N

Identify the outcome logged in this assay for the compound shown: Nc1ccc2ccccc2c1
N

Identify the outcome logged in this assay for the compound shown: Cc1cccc(N)c1
N

Identify the outcome logged in this assay for the compound shown: O=[N+]([O-])c1ccccc1
N

* * *

# Read-out: Collagen III, COL3A1 (gene 1281)
# experimentNotes: BSK_hDFCGF_CollagenIII: BioMAP Diversity Plus: hDFCGF Assay for Collagen III Biomarker Activity (AID 2283056)
# experimentalSetup: primary human foreskin fibroblasts; actives raise or lower the signal
The source made the active and inactive calls. The calls were made as follows: active = hit-call score of the fitted dose curve at least 0.9, where 1 is the maximum; inactive = score below 0.9.
measuredProperty: AC50

In the examples that follow, each entry is paired with its recorded AC50.
# molecule, observedMeasurement
data = [
    ("CCOC(=O)c1ccccc1C(=O)OCC", "inactive"),
    ("ClC1=C(Cl)C2(Cl)C3C(Cl)C(Cl)CC3C1(Cl)C2(Cl)Cl (stereo not given)", "6.06 µM (active)"),
    ("O=[N+]([O-])c1ccc(Cl)c(Cl)c1", "inactive"),
    ("N#Cc1c(-c2ccc(Cl)cc2)[nH]c(C(F)(F)F)c1Br", "0.0161 µM (active)"),
    ("ClC(Cl)c1ccccc1", "inactive"),
]

Param item = CCC(C)(C)c1ccc(O)cc1 ; retrieve measured AC50.
inactive

Param item = Nc1ccc2ccccc2c1 ; retrieve measured AC50.
inactive

Param item = COC(=O)C(F)(F)C(F)(F)OC(F)(C(F)(F)F)C(F)(F)OC(F)=C(F)F (stereo not given) ; retrieve measured AC50.
inactive

Param item = CCOP(=S)(NC(C)C)Oc1ccccc1C(=O)OC(C)C (stereo not given) ; retrieve measured AC50.
inactive

* * *

# Read-out: Collagen I, COL1A1 (gene 1277)
# experimentNotes: BSK_MyoF_CollagenI: BioMAP Diversity Plus: MyoF Assay for Collagen I Biomarker Activity (AID 2284238)
# experimentalSetup: primary human lung fibroblasts
Active and inactive are the calls of the source. The calls were made as follows: active = hit-call score of the fitted dose curve at least 0.9, where 1 is the maximum; inactive = score below 0.9.
Hello, when you answer, please use one of the following outcomes: yes for active, no for inactive

Identify the outcome logged in this assay for the molecule shown: COP(=O)(O)OC
no

Identify the outcome logged in this assay for the molecule shown: CC(O)C(F)(F)C(F)(F)F (stereo not drawn)
no

Identify the outcome logged in this assay for the molecule shown: CC(C)(C)c1ccccc1OP(=O)(Oc1ccccc1)Oc1ccccc1
yes

* * *

# experimentNotes: ATG_ISRE_CIS: Attagene CIS-FACTORIAL HepG2 Assay for human Interferon Regulatory Factor 1 (IRF1) binding to an Interferon-Stimulated Response Element (ISRE) (AID 2282948)
# experimentalSetup: HepG2 ISRE cis-reporter (Attagene), mRNA transcription readout; actives raise or lower the signal
The source made the active and inactive calls. The calls were made as follows: active = hit-call score of the fitted dose curve at least 0.9, where 1 is the maximum; inactive = score below 0.9.
Hello, when you answer, please use one of the following outcomes: true (1) (active), false (0) (inactive)

Identify the outcome logged in this assay for the compound shown: O=C(O)CF
false (0)

Identify the outcome logged in this assay for the compound shown: CC(C)(C)N(NC(=O)c1ccc(Cl)cc1)C(=O)c1ccccc1
false (0)

Identify the outcome logged in this assay for the compound shown: Cc1ccc([N+](=O)[O-])cc1C
false (0)

Identify the outcome logged in this assay for the compound shown: c1ccc2c(c1)sc1ccccc12
false (0)

Identify the outcome logged in this assay for the compound shown: CCOP(=S)(OCC)SCS(=O)(=O)CC
false (0)

Identify the outcome logged in this assay for the compound shown: CC1(C)CN=C(NN=C(/C=C/c2ccc(C(F)(F)F)cc2)/C=C/c2ccc(C(F)(F)F)cc2)NC1
true (1)

Identify the outcome logged in this assay for the compound shown: CCOS(=O)(=O)OCC
false (0)

Identify the outcome logged in this assay for the compound shown: c1nc[nH]n1
false (0)

Identify the outcome logged in this assay for the compound shown: COP(=O)(CCC(=O)NCO)OC
false (0)

Identify the outcome logged in this assay for the compound shown: CCCCN(CCCC)N=O
false (0)

Identify the outcome logged in this assay for the compound shown: c1ccc2c(c1)Nc1ccccc1S2
false (0)

Identify the outcome logged in this assay for the compound shown: O=S(=O)(F)C(F)(F)C(F)(F)C(F)(F)C(F)(F)C(F)(F)C(F)(F)C(F)(F)C(F)(F)F
false (0)

Identify the outcome logged in this assay for the compound shown: CC(C)(C)c1ccc(O)cc1
false (0)

Identify the outcome logged in this assay for the compound shown: O=C(O)C(F)(F)OC(F)(F)C(F)(F)OC(F)(F)C(=O)O
false (0)

* * *

# Read-out: Low-density lipoprotein receptor (LDLR), LDLR (gene 3949)
# experimentNotes: BSK_CASM3C_LDLR: BioMAP Diversity Plus: CASM3C Assay for Low-density lipoprotein receptor (LDLR) Biomarker Activity (AID 2283045);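 also: LDLR protein level on the cell surface quantified by ELISA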
# experimentalSetup: primary human coronary artery smooth muscle cells; actives raise or lower the signal
Activity calls are given as the source filed them. How the source made its calls: active means hit-call score of the fitted dose curve at least 0.9, where 1 is the maximum; inactive means score below 0.9.
Hello, when you answer, please use one of the following outcomes: 1 (active), 0 (inactive)

Identify the outcome logged in this assay for the compound shown: CCCN(CCC)c1c([N+](=O)[O-])cc(C(C)C)cc1[N+](=O)[O-]
1

Identify the outcome logged in this assay for the compound shown: O=C(O)C(F)(OC(F)(F)C(F)(F)C(F)(F)F)C(F)(F)F (centres undefined)
0

Identify the outcome logged in this assay for the compound shown: O=S(=O)(F)C(F)(F)C(F)(F)C(F)(F)C(F)(F)C(F)(F)C(F)(F)C(F)(F)C(F)(F)F
0

Identify the outcome logged in this assay for the compound shown: O=C(O)C1C(C(=O)O)C2(Cl)C(Cl)=C(Cl)C1(Cl)C2(Cl)Cl (centres undefined)
0

Identify the outcome logged in this assay for the compound shown: COP(N)(=S)OC
0

Identify the outcome logged in this assay for the compound shown: CCCCCCCc1ccc(O)cc1
1

Identify the outcome logged in this assay for the compound shown: O=C(O)C(F)(F)C(F)(F)C(=O)O
0

Identify the outcome logged in this assay for the compound shown: Nc1ccc2ccccc2c1
0

Identify the outcome logged in this assay for the compound shown: O=P(Oc1ccccc1)(Oc1ccccc1)Oc1ccccc1
1

* * *

# experimentNotes: CCTE_Shafer_MEA_dev_network_spike_duration_std: CCTE's Neural Network Formation Assay for Standard Deviation of Network Spike Duration, Shafer Lab (AID 2284052);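 also: area under curve of spike duration SD across recording days 5 to 12; hits are decreases in network spike duration SD versus DMSO vehicle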
Activity calls are given as the source filed them. How the source made its calls: active means hit-call score of the fitted dose curve at least 0.9, where 1 is the maximum; inactive means score below 0.9.
Hello, when you answer, please use one of the following outcomes: 1 for active, -1 for inactive

Identify the outcome logged in this assay for the compound shown: c1cc2c3c(cccc3c1)CC2
-1

Identify the outcome logged in this assay for the compound shown: O=S(=O)(c1ccc(O)cc1)c1ccc(O)cc1
-1

Identify the outcome logged in this assay for the compound shown: CCCCC(CC)COP(=O)(Oc1ccccc1)Oc1ccccc1 (centres undefined)
-1

Identify the outcome logged in this assay for the compound shown: O=C(O)C=CC(F)(C(F)(F)F)C(F)(F)F
-1

Identify the outcome logged in this assay for the compound shown: ClC1=C(Cl)C2(Cl)C3C(Cl)C(Cl)CC3C1(Cl)C2(Cl)Cl (centres undefined)
-1

Identify the outcome logged in this assay for the compound shown: CCCCC(CC)COC(=O)c1c(Br)c(Br)c(Br)c(Br)c1C(=O)OCC(CC)CCCC (centres undefined)
-1

Identify the outcome logged in this assay for the compound shown: C=CC(=O)OCC(F)(F)C(F)F
-1

Identify the outcome logged in this assay for the compound shown: O=P(Oc1ccccc1)(Oc1ccccc1)Oc1ccccc1
-1

Identify the outcome logged in this assay for the compound shown: CC(C)(C)c1ccccc1OP(=O)(Oc1ccccc1)Oc1ccccc1
-1

Identify the outcome logged in this assay for the compound shown: O=C(O)C(F)(F)OC(F)(F)C(F)(F)OC(F)(F)C(=O)O
-1

Identify the outcome logged in this assay for the compound shown: CCOc1ccc(C(C)(C)COCc2cccc(Oc3ccccc3)c2)cc1
-1

Identify the outcome logged in this assay for the compound shown: c1ccc(OP(Oc2ccccc2)Oc2ccccc2)cc1
-1

Identify the outcome logged in this assay for the compound shown: CCOP(=S)(OCC)SCSCC
-1

Identify the outcome logged in this assay for the compound shown: CC(O)C(F)(F)C(F)(F)F (centres undefined)
-1

Identify the outcome logged in this assay for the compound shown: O=C(O)C(F)(F)OC(F)(F)C(F)(F)OC(F)(F)F
-1

Identify the outcome logged in this assay for the compound shown: CCC1(c2ccccc2)C(=O)N=C(O)NC1=O (centres undefined)
-1

Identify the outcome logged in this assay for the compound shown: O=P1(N(CCCl)CCCl)NCCCO1 (centres undefined)
-1

Identify the outcome logged in this assay for the compound shown: CO/N=C(/C(=O)OC)c1ccccc1COc1ccccc1C
1

Identify the outcome logged in this assay for the compound shown: OCC(F)(F)OC(F)(F)C(F)(F)OC(F)(F)CO
-1
